Reported TD50 values for a set of molecules
- assay.info: in vivo
- run.parameters: rat, po

molecule	TD50
NC(=O)NN=Cc1ccc(Oc2ccc(F)cc2)cc1	> 500 mg/kg
O=C1NC(=O)C(c2ccccc2)(c2ccccc2)N1 [Phenytoin, reference compound]	> 500 mg/kg

====

Reported MES screen 4 h: number of rats out of 4 which were protected values for a set of compounds
- Test system: rats
- assay.info: MES screen after oral administration to rats
- run.parameters: oral administration to rats; dose 12.5 mg/kg; 4 h
measured.endpoint: MES screen 4 h: number of rats out of 4 which were protected

chemical.string	experimental.system	experimental.result
CCCCc1ccc(Oc2ccc(C=NNC(N)=O)cc2)cc1	rats	4
Cc1ccccc1Oc1ccc(C=NNC(N)=O)cc1	rats	4
CCCCOc1ccc(Oc2ccc(C=NNC(N)=O)cc2)cc1	rats	2
N#Cc1ccc(Oc2ccc(C=NNC(N)=O)cc2)cc1	rats	4
CCc1ccc(Oc2ccc(C=NNC(N)=O)cc2)cc1	rats	4

====

Reported ED50 values for a set of compounds
- System: kindled rat
- assay.info: kindled rat test (corneal kindled rat screen)
- Type: in vivo, rats
- run.parameters: Rattus norvegicus; read-out: ED50 (dose required to reduce seizures from stage 5 to stage 3 or less)
measured.endpoint: ED50

compound	experimental.system	measured.endpoint	experimental.result
NC(=O)N1c2ccccc2C=Cc2ccccc21 [Carbamazepine, reference compound]	kindled rat	ED50	28.9 mg/kg
CCCC(CCC)C(=O)O [Valproic acid, reference compound]	kindled rat	ED50	117 mg/kg
O=C1NC(=O)C(c2ccccc2)(c2ccccc2)N1 [Phenytoin, reference compound]	kindled rat	ED50	> 100 mg/kg
NC(=O)NN=Cc1ccc(Oc2ccc(F)cc2)cc1 [Compound 4b]	kindled rat	ED50	3.93 mg/kg

====

- System: rats
- assay.info: MES screen after oral administration to rats
- run.parameters: oral administration to rats; dose 12.5 mg/kg; 0.5 h
measured.endpoint: MES screen: number of rats out of 4 which were protected

molecule	experimental.result
CCC(=NNC(N)=O)c1ccc(Oc2ccc(F)cc2)cc1 [Compound 13f]	2
NC(=O)NN=Cc1ccc(OS(=O)(=O)c2ccccc2)cc1 [Compound 15f]	2
NC(=O)NN=Cc1ccc(Sc2ccc(Br)cc2)cc1 [Compound 16c]	1
CCC(=NNC(N)=O)c1ccc(Oc2ccc(Br)cc2)cc1 [Compound 13h]	2
NC(=O)NN=Cc1ccc(Sc2ccc(F)cc2)cc1 [Compound 16a]	3

====

- System: rats
- assay.info: MES screen after oral administration to rats
- run.parameters: oral administration to rats; dose 12.5 mg/kg; 1 h
measured.endpoint: MES screen 1 h: number of rats out of 4 which were protected

chemical.string	experimental.system	experimental.result
N#Cc1ccc(Oc2ccc(C=NNC(N)=O)cc2)cc1	rats	4
Cc1ccccc1Oc1ccc(C=NNC(N)=O)cc1	rats	3
CCCCc1ccc(Oc2ccc(C=NNC(N)=O)cc2)cc1	rats	2
CCc1ccc(Oc2ccc(C=NNC(N)=O)cc2)cc1	rats	4

====

- Test system: rats
- assay.info: neurotoxicity screen after oral administration to rats
- run.parameters: oral administration to rats; time t (h) per compound as in the table
Reported neurotoxicity screen TD50 values for a set of molecules
measured.endpoint: neurotoxicity screen TD50

molecule	experimental.result
Cc1ccccc1Oc1ccc(C=NNC(N)=O)cc1	>500 mg/kg
NC(=O)NN=Cc1ccc(Sc2ccc(F)cc2)cc1 [Compound 16a]	183.05 mg/kg
NC(=O)NN=Cc1ccc(Sc2ccccc2)cc1 [Compound 15a]	>496 mg/kg
CCCCc1ccc(Oc2ccc(C=NNC(N)=O)cc2)cc1	>3.22 mg/kg
Cc1ccc(Oc2ccc(C=NNC(N)=O)cc2)cc1	>500 mg/kg
NC(=O)N1c2ccccc2C=Cc2ccccc21 [Carbamazepine, reference compound]	361 mg/kg

The origin of these recorded values is patent USRE38425E1.
